# testProtocol: qHTS for Inhibitors of human tyrosyl-DNA phosphodiesterase 1 (TDP1): qHTS in cells in absence of CPT; further: nearly all actives have a fitted effect of over 55% in size
# setupConditions: DT40 Tdp1-/- hTDP1 cells, no CPT, ATP luminescence, 48 h
Among all 420,000 compounds or so, about 64,000 (15%) were called active. Not shown: some 27% with an inconclusive outcome. The call rests on the fitted dose curve; in most records, active means well fitted inhibition curve with a large enough effect; inconclusive means small, poorly fitted or top-dose-only effect; inactive means flat fitted curve, though single readings scatter. Not all results are given here.
Respond with a class label; see true (1) (active), false (0) (inactive)

## Task Per the assay record, what outcome was assigned to Cc1c(C(=O)NCCN(C)C)oc2ccc(S(=O)(=O)N3CCCC3)cc12 ?
## Result false (0)

## Task Assay result, entry CCOC(=O)[C@H]1[C@H]2COc3cc(OC)ccc3[C@@H]2N2C(=O)N(c3ccc(Br)cc3)C(=O)[C@@]12C — outcome?
## Result true (1)

## Task In this assay, the call recorded for CCc1cccc(NC(=O)c2cc(-c3ccccc3)n[nH]2)c1 was what?
## Result false (0)

## Task Please indicate how the test categorized CC(C)(C)NC(=O)NC(=O)COC(=O)C1(C)CC1(Cl)Cl (stereo unspecified) .
## Result false (0)

## Task Assay outcome for COc1ccc(-c2nc3cnccn3c2NC(C)(C)CC(C)(C)C)cc1O : what was it?
## Result true (1)

## Task Query: recorded result category for O=[N+]([O-])c1ccc(S(=O)(=O)Nc2cccc(-c3ccc(N4CCCC4)nn3)c2)cc1 in this test
## Result false (0)

## Task Kindly provide the recorded test outcome for the following compound: Cc1cccc(C)c1NC(=O)CN1C(=O)C(C)Oc2ccccc21 (stereo unspecified)
## Result false (0)

## Task // return assay outcome for COC(=O)C1C(=O)CC(C)(O)C(C(=O)OC)C1c1ccc2c(c1)OCO2 (stereo unspecified)
## Result false (0)

## Task I would be grateful if you could indicate the recorded call for O=C(c1cccc(C(=O)N2CCN(c3ccc(F)cc3)CC2)c1)N1CCN(c2ccc(F)cc2)CC1 .
## Result true (1)

## Task Recorded call for O=C(Cc1ccccn1)c1ccc(O)cc1O ?
## Result false (0)

## Task # lookup: test call for N#C/C(=C(/O)COc1cccc2ccccc12)c1nc2ccccc2[nH]1
## Result false (0)

## Task Which result was noted for this compound in the test: O=C(Cn1[nH]c(=O)c2ccccc2c1=O)Nc1cccc(-c2nnc3n2CCCCC3)c1
## Result false (0)

## Task GET /call?item= COc1cc2ccccc2cc1C(=O)N1CCOCC1 returns the recorded outcome of this test.
## Result false (0)

## Task Per the records of this test, what outcome belongs to Cc1oc(-c2ccccc2F)nc1CN1CCC(C(=O)NCCc2ccc(Cl)cc2)CC1 ?
## Result true (1)

## Task # lookup: test call for CCOC(=O)[C@H]1[C@H]2COc3ccc(Br)cc3[C@@H]2N2C(=O)CN(C)C(=O)[C@@]12C
## Result false (0)

## Task Which result was noted for this compound in the test: CN(CC(=O)NCc1ccc(Cl)cc1)S(=O)(=O)c1cccs1
## Result false (0)

## Task Dear all, I need the recorded test outcome for O=C(NCCN1CCOCC1)c1cnn(-c2nccc(-c3cccs3)n2)c1C1CC1 , thank you.
## Result false (0)

## Task # fetch the recorded call for COc1ccccc1C(=O)COC(=O)COc1ccc(C#N)cc1 here
## Result false (0)

## Task Please state the recorded outcome for this compound: Cc1cc(C)n2nc(C(=O)Nc3cccc(S(=O)(=O)N4CCOCC4)c3)nc2n1
## Result false (0)

## Task What is the recorded call for this compound in the test? Cc1ccn(CC(=O)N2N=C(C(F)F)CC2(O)C(F)F)n1 (stereo unspecified)
## Result false (0)

## Task What call does the record list for COc1ccc2[nH]cc(CCN3C(=O)c4ccc(C(=O)O)cc4C3=O)c2c1 ?
## Result false (0)

## Task Hello, I am checking results. What call was entered for O=C(Nc1cc(S(=O)(=O)N2CCOCC2)ccc1Cl)c1cc(=O)c2ccccc2o1 ?
## Result true (1)

## Task Recorded test outcome, item C=CCn1c(COc2ccccc2)nnc1SCC(=O)NCC(=O)OCC
## Result false (0)

## Task What did the test return for CCOC(=O)[C@@H]1[C@H]2COc3ccc(Br)cc3[C@H]2N2C(=O)N(c3ccc(C)cc3)C(=O)[C@@]12C ?
## Result true (1)

## Task What call does the record list for CC(C)n1ncc2c(C(=O)Nc3ccc(CC#N)cc3)cc(C3CC3)nc21 ?
## Result true (1)

## Task How was N#C/C(=C(/O)COC(=O)COc1ccc(Cl)cc1)c1nc2ccccc2[nH]1 classified in this test?
## Result true (1)

## Task Please state the recorded outcome for this compound: COc1ccc(-c2nc3cnccn3c2NC2CCCCC2)cc1-c1cccc(Cl)c1
## Result true (1)

## Task Lab log entry: CC(=O)Nc1ccc(CC#N)cc1 — outcome as called in the assay?
## Result false (0)

## Task I'd appreciate the recorded outcome for COc1ccc(C)cc1S(=O)(=O)NC1CCCCC1 from this test.
## Result false (0)

## Task # lookup: test call for CCOCC(=O)Nc1ncc(S(=O)(=O)c2ccc([N+](=O)[O-])cc2)s1
## Result false (0)

## Task // outcome(item) with item = CCC1Oc2ccc(Cl)cc2N(CC(=O)O)C1=O (stereo unspecified)
## Result false (0)

## Task Tell me the recorded outcome of this test for Cc1c(C(=O)Nc2ccccc2Cl)oc2ccc(S(=O)(=O)N3CCC4(CC3)OCCO4)cc12 .
## Result false (0)

## Task So what was the verdict on C/C(=C\C(=O)c1ccc(Br)cc1)N1CCCCC1 in this test?
## Result false (0)

## Task Hi team, can someone confirm the assay call for O=C(c1cc(C(=O)N2CCN(c3ccc(F)cc3)CC2)cc([N+](=O)[O-])c1)N1CCN(c2ccc(F)cc2)CC1 ?
## Result true (1)

## Task // return assay outcome for COc1ccc(-c2nc3cc(C)ccn3c2NC2CCCCC2)cc1SC1CCCCC1
## Result true (1)

## Task // outcome(item) with item = CCOC(=O)[C@H]1[C@H]2COc3ccccc3[C@@H]2N2C(=O)CN(Cc3ccccc3)C(=O)[C@@]12C
## Result false (0)

## Task GET /call?item= Cc1oc(-c2ccccc2F)nc1CS(=O)CC(=O)NCCN1CCCCC1C (stereo unspecified) returns the recorded outcome of this test.
## Result false (0)

## Task What classification did CCOC(=O)[C@@H]1[C@H]2COc3cc(OC)ccc3[C@@H]2N2C(=O)N(c3cccc(C)c3)C(=O)[C@@]12C end up with in this test?
## Result false (0)

## Task # lookup: test call for Cc1noc(C)c1S(=O)(=O)Nc1ccc(C(=O)N2CCN(c3ccc(F)cc3)CC2)cc1
## Result false (0)

## Task Hey, what did the test say about COc1ccc(C2CC(=O)c3c(O)cc(OC4OC(COC5OC(C)C(O)C(O)C5O)C(O)C(O)C4O)cc3O2)cc1O (stereo unspecified) ?
## Result false (0)

## Task // outcome(item) with item = COc1ccc(OCc2cccc(C(=O)N3CCCC3)c2)cc1
## Result false (0)
